Exercise: for every item that follows, state its recorded activation.
- measurementTarget: Troponin I, cardiac muscle (Homo sapiens) + Troponin T, cardiac muscle (Homo sapiens) + Troponin C, slow skeletal and cardiac muscles (Homo sapiens) (UniProt P19429+P45379+P63316)
- protocolSummary: cardiac RTF calcium sensitivity activators, confirmation, biochemical, IANBD-TnC fluorescence, triplicate (AID 504383);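 further: 0% = DMSO at 0.472 mM calcium and 100% = DMSO at 2.9 mM calcium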
- runConditions: IANBD-labeled cardiac RTF, Ca2+ sensitivity fluorescence; at 7.2 µM; stronger effect = higher value; scaled from EC20 to saturating calcium; tested at EC20 calcium, 0.472 mM
Hit rate of the full screen: of about 2,500 compounds, about 1,200 (48%) were called active. So high a share suggests a set chosen from earlier hits. The list shows a part of the results.
Express it in %; write the number only.

Incoming: Data request, read-out activation, for "O=C(COc1ccccc1)NC(=S)Nc1cccc(NC(=O)c2ccccc2Cl)c1"
Outgoing: 7.06

Incoming: Same lookup for "CN1CCCc2cc3c(C(F)(F)F)cc(=O)oc3nc21" , please.
Outgoing: 10.7

Incoming: Same lookup for "CN(C)c1ccc(/C=N/NC(=O)c2cnc3ccccc3c2)cc1" , please.
Outgoing: 6.1

Incoming: Same lookup for "O=c1oc2ccccc2cc1-c1ccc(O)cc1O" , please.
Outgoing: 94.9

Incoming: Same lookup for CC(O)Cc1cn([C@@H](CCCCN)C(=O)N2CCNCC2)nn1 (some centres undefined) , please.
Outgoing: 2.6

Incoming: Same lookup for CSCC(O)Cn1ncc2ccccc2c1=O (centres undefined) , please.
Outgoing: 5.97

Incoming: Same lookup for "Cc1cc(NC(=O)/C(C#N)=C\c2ccc(-c3ccc(SC(F)F)cc3)o2)n(-c2ccccc2)n1" , please.
Outgoing: 359

Incoming: Same lookup for "O=c1c2ccccc2cnn1Cc1n[nH]c(=S)n1-c1ccccc1Cl" , please.
Outgoing: 16.3

Incoming: Same lookup for "CCOC(=O)c1c(NCC(C)C)c2ccccc2[nH]c1=O" , please.
Outgoing: 183

Incoming: Same lookup for CCOC(=O)C1CCCN(C(=O)C2c3ccccc3Oc3ccccc32)C1 (centres undefined) , please.
Outgoing: -3.14

Incoming: Same lookup for "COc1ccc(N2CCN(c3ccc([N+](=O)[O-])cc3Cl)CC2)cc1" , please.
Outgoing: 41.8

Incoming: Same lookup for CCOC(=O)C1(Cc2cccc(OC)c2)CCCN(Cc2nccn2CC)C1 (centres undefined) , please.
Outgoing: 6.61

Incoming: Same lookup for Cc1ccc(NC(=O)C(OC(=O)c2ccc(F)cc2)c2ccccc2)cc1Cl (centres undefined) , please.
Outgoing: 8.32

Incoming: Same lookup for "C[C@@H](C(=O)N1CCNCC1)n1cc(CCCN=C(N)N)nn1" , please.
Outgoing: 107

Incoming: Same lookup for "COc1ccccc1C(=O)n1nc(-c2ccccc2)nc1N" , please.
Outgoing: 4.84

Incoming: Same lookup for "CN(C)c1ccc(/C=C/c2nc3ccccc3c(=O)[nH]2)cc1" , please.
Outgoing: 9.5

Incoming: Same lookup for "Cc1cccc2cc3c(N)c(C(=O)N4CCCc5ccccc54)sc3nc12" , please.
Outgoing: 6.58

Incoming: Same lookup for "O=C([O-])c1ccccc1-[n+]1c(-c2ccccc2)cc(-c2ccccc2)cc1-c1ccccc1" , please.
Outgoing: 7.07

Incoming: Same lookup for "N#C/C(=C/c1ccc(N2CCCCCC2)o1)c1cccc(F)c1" , please.
Outgoing: 99.3

Incoming: Same lookup for "CC(=O)c1cc2c(cc1N/C(=N/S(=O)(=O)c1ccc(Br)cc1)c1ccccc1)OCO2" , please.
Outgoing: 5.61

Incoming: Same lookup for "O=c1oc2ccccc2cc1-c1nc(-c2cccs2)cs1" , please.
Outgoing: 7.53

Incoming: Same lookup for "COc1ccc(N2CCN(S(=O)(=O)Cc3ccccc3)CC2)cc1" , please.
Outgoing: 10.5

Incoming: Same lookup for CCOC(=O)C1=C(COC(=O)c2ccc3ccccc3c2O)NC(=O)NC1C (centres undefined) , please.
Outgoing: 6.83

Incoming: Same lookup for COC1C(CO)OC(n2c3c(Cl)cccc3c3c4c(c5c6cccc(Cl)c6[nH]c5c32)C(=O)NC4=O)C(O)C1O (centres undefined) , please.
Outgoing: 2.74

Incoming: Same lookup for "Cc1c(Cl)c([N+](=O)[O-])nn1CC(=O)N1CCN(C23CC4CC(CC(C4)C2)C3)CC1" , please.
Outgoing: 12

Incoming: Same lookup for "COc1cccc(C(=O)Nc2cc(C(=O)NCc3ccc(C)cc3)ccc2N2CCC3(CC2)CC(c2cccc(Br)c2)=NO3)c1" , please.
Outgoing: 5.62

Incoming: Same lookup for "COc1ccccc1N1CCN(c2ccc([N+](=O)[O-])cc2Cl)CC1" , please.
Outgoing: 90.7

Incoming: Same lookup for "CCc1cccc2cc3c(N)c(C(=O)Nc4ccc(S(=O)(=O)N5CCCC5)cc4)sc3nc12" , please.
Outgoing: 24.8

Incoming: Same lookup for "CC(C)CC[n+]1ccccc1/C=C/c1ccc(N(C)C)cc1" , please.
Outgoing: 7

Incoming: Same lookup for "CCCN(CCC)C(=O)C1c2ccccc2Oc2ccccc21" , please.
Outgoing: 16.6

Incoming: Same lookup for "O=c1c(-c2ccc(O)cc2O)coc2cc(O)cc(O)c12" , please.
Outgoing: 8.85

Incoming: Same lookup for "CSc1cccc(NC(=O)c2ccc(Cl)nc2)c1" , please.
Outgoing: 15.5

Incoming: Same lookup for "O=c1oc2cc(O)ccc2cc1-c1nc2c(s1)CCc1ccccc1-2" , please.
Outgoing: 7.71

Incoming: Same lookup for "NC(=O)NNC1=Nc2cccc3cccc1c23" , please.
Outgoing: 6.47

Incoming: Same lookup for "CCOC(=O)c1sc(=NC(=O)c2cc(OC)c(OC)c(OC)c2)n(C)c1C" , please.
Outgoing: 266

Incoming: Same lookup for "O=C(O)c1ncc(-c2ccccc2)cn1" , please.
Outgoing: 128

Incoming: Same lookup for "N=c1oc2ccccc2cc1-c1nc(-c2ccccc2)cs1" , please.
Outgoing: 4.19

Incoming: Same lookup for C/C=C/c1ccc(OCCCNCC(C)O)c(OC)c1 (centres undefined) , please.
Outgoing: 663

Incoming: Same lookup for "CCOC(=O)C1(Cc2cccc(OC)c2)CCN(Cc2ccon2)CC1" , please.
Outgoing: 12.7

Incoming: Same lookup for "Cc1cc(C)c(C(N)=O)c(Nc2ccc(F)cc2)n1" , please.
Outgoing: 1.65

Incoming: Same lookup for "O=C(N/N=C/c1ccc([N+](=O)[O-])cc1)c1cc(-c2ccc3c(c2)OCO3)n[nH]1" , please.
Outgoing: 0.5

Incoming: Same lookup for "CCN(CC)c1ccc2cc(-c3nnc(-c4ccncc4)o3)c(=O)oc2c1" , please.
Outgoing: 18.1

Incoming: Same lookup for O=C(CC1SC(N2CCCCC2)=NC1=O)Nc1ccc(C(=O)NCc2ccccc2)cc1 (centres undefined) , please.
Outgoing: 9.91

Incoming: Same lookup for "Cc1ccc(NC(=O)Nc2ccc(F)cc2)cc1Cl" , please.
Outgoing: 20.6
